pIC50: −log10 of the molar value.
pIC50 for USP19 (Homo sapiens (Human), UniProt O94966), merged from several publications.

1) C[C@H](CC1CCCCC1)C(=O)N1CCC(O)(Cn2cnc(-c3ccccc3CN)cc2=O)C(C)(C)C1 (stereo partly shown) | > 6.30
2) O=C(C(F)CC1CCCCC1)N1CCC(O)(Cn2cnc(-c3ccccc3F)cc2=O)CC1 (racemic) | 3.60 to 4.30
3) O=C(N1CCC(O)(Cn2cnc(-c3ccccc3)cc2=O)C2(CCCC2)C1)N1CCSCC1c1ccccc1 (stereo not shown) | > 6.30
4) CC(C)N(C)C(=O)c1cn(CC2(O)CCN(C(=O)[C@H](C)CC3CCCCC3)CC2)c(=O)cc1-c1ccccc1 | 5.30 to 6.30
5) C[C@H](CC1CCCCC1)C(=O)N1CCC(O)(Cn2cnc3cc(F)c(Cl)cc3c2=O)C2(CCCC2)C1 (stereo partly shown) | > 6.30
6) O=C(N1CC[C@@](O)(Cn2cnc(-c3ccc4c(c3)COC4)cc2=O)C2(CCCC2)C1)N1CCNC[C@H]1c1ccccc1 | > 6.30

Proceed to the following item.
# input Param readout= pIC50; system= USP19 (Homo sapiens (Human), UniProt O94966); entry= O=C(NCc1cccc(F)c1F)N1CC[C@@](O)(Cn2cnc(-c3ccccc3)cc2=O)C2(CCCC2)C1 ; returns value.
# output > 6.30

====

IC50 for USP19 (Homo sapiens (Human)), merged from several publications.

1. O=C(N1CCC(O)(Cn2cnc(-c3ccccc3)cc2=O)C2(CCCC2)C1)N1CCOCC1C(F)(F)F (stereo not shown) | 5 to 50 µM
2. O=C(N1CC[C@@](O)(Cn2cnc(-c3ccccc3C(F)F)cc2=O)C2(CCCC2)C1)N1CCNC[C@H]1c1ccccc1 | < 0.5 µM
3. C[C@H](CC1CCCCC1)C(=O)N1CCC(O)(Cn2cnc(-c3ccn[nH]3)cc2=O)C(C)(C)C1 (stereo partly shown) | 0.5 to 5 µM

# input I'd like to know its IC50. The molecule in question is C[C@H](CC(F)(F)F)C(=O)N1CC[C@@](O)(Cn2cc(C(=O)N3CCOCC3)c(-c3ccccc3)cc2=O)C2(CCCC2)C1
# output < 0.5 µM

====

IC50 for UniProt O94966, merged from several publications.

Past entries and their recorded results:
1) C[C@H](CC1CCCCC1)C(=O)N1CC[C@@](O)(Cn2cc(C(=O)N3CCNCC3)c(-c3ccccc3F)cc2=O)C2(CCCC2)C1 | < 0.5 µM
2) O=C(N1CCC(O)(Cn2cnc(-c3ccccc3)cc2=O)C2(CCCC2)C1)N1CCCC1C(F)(F)F (centres unmarked) | 0.5 to 5 µM
3) CC(CC1CCCCCC1)C(=O)N1CCC(O)(Cn2cnc(-c3ccccc3F)cc2=O)CC1 (racemic) | 5 to 50 µM
4) CC(n1cnc(-c2ccccc2)cc1=O)C1(O)CCN(C(=O)C[C@@H](C)c2ccccc2)CC1 (mixture of isomers) | 50 to 250 µM

# input Param readout= IC50; system= UniProt O94966; entry= C[C@H](CC(F)(F)F)C(=O)N1CC[C@@](O)(Cn2cnc(-c3cccc(F)c3)cc2=O)C2(CCCC2)C1 ; returns value.
# output < 0.5 µM

# input Param readout= IC50; system= UniProt O94966; entry= C[C@H](CC1CCCCC1)C(=O)N1CC[C@@](O)(Cn2cc(C(=O)N(C)C)c(-c3ccccc3F)cc2=O)C2(CCCC2)C1 ; returns value.
# output < 0.5 µM

# input Param readout= IC50; system= UniProt O94966; entry= O=C1COCCN1CC1(O)CCN(C(=O)N2CCOC[C@H]2c2ccccc2)CC12CCCC2 (some centres unmarked) ; returns value.
# output 5 to 50 µM

# input Param readout= IC50; system= UniProt O94966; entry= C[C@@]1(c2ccccc2)CNCCN1C(=O)N1CC[C@@](O)(Cn2cnc(-c3ccccc3)cc2=O)C2(CCCC2)C1 ; returns value.
# output < 0.5 µM

# input Param readout= IC50; system= UniProt O94966; entry= C=C(C)c1cc(=O)n(CC2(O)CCN(C(=O)C[C@@H](C)c3ccccc3)CC2)cn1 ; returns value.
# output 50 to 250 µM

# input Param readout= IC50; system= UniProt O94966; entry= C[C@H](CC1CCCCC1)C(=O)N1CCC(O)(Cn2cc([S+](C)[O-])c(-c3ccccc3)cc2=O)C2(CCCC2)C1 (some centres unmarked) ; returns value.
# output < 0.5 µM

# input Param readout= IC50; system= UniProt O94966; entry= CN(C)C(=O)c1cn(CC2(O)CCN(C(=O)C(C)(C)CC(F)F)CC23CCCC3)c(=O)cc1-c1ccccc1 (centres unmarked) ; returns value.
# output 5 to 50 µM

# input Param readout= IC50; system= UniProt O94966; entry= C[C@H](CC1CCCCC1)C(=O)N1CCC(O)(Cn2cc(C(=O)N(C)C)c3ccccc3c2=O)C2(CCCC2)C1 (some centres unmarked) ; returns value.
# output 0.5 to 5 µM

# input Param readout= IC50; system= UniProt O94966; entry= O=C(N1CCC(O)(Cn2cc(F)c(-c3ccccc3)cc2=O)C2(CCCC2)C1)N1CCNC[C@H]1c1ccccc1 (some centres unmarked) ; returns value.
# output < 0.5 µM

# input Param readout= IC50; system= UniProt O94966; entry= C[C@H](CC1CCCCC1)C(=O)N1CCC(O)(Cn2ccc3sccc3c2=O)C2(CCCC2)C1 (some centres unmarked) ; returns value.
# output 5 to 50 µM
